Origin of measurements: patent US12202805B2

Assay: E-2.3 inhalative, oral and intravenous single doses in healthy male subjects: plasma concentrations and lung deposition
Assay type: in vivo, human
Settings: male, human, plasma, inhaled, 1000 μg, healthy male subjects, single 1000 μg inhale, N = 16; 2.5 h after dose; read-out: Geometric mean of plasma concentrations
REPORTED_METRIC: concentration at 2.5 h (ng/mL)
Kindly answer with a numeric value in ng/mL, unit omitted.

Query block: Please give measured concentration at 2.5 h of the following entry: O=C(O)c1ccc(CCN(CCc2ccccc2OCc2ccc(-c3ccc(C(F)(F)F)cc3)cc2Cl)[C@H]2CCCc3nc(C(=O)O)ccc32)cc1 [example 4]
Result block: 1.18
